Test system: Escherichia coli
methodSummary: Antimicrobial activity against Escherichia coli T-622 harboring expressing qnrB2 and beta-lactamase KPC-2 and SHV-12 gene by Etest
Format: functional
Listing: log10 of MIC of selected molecules
readoutType: log10 of MIC (log10 of the value in µg/mL)

>>> reportedvalue("CC(C)(O/N=C(\\C(=O)N[C@@H]1C(=O)N2C(C(=O)[O-])=C(C[n+]3ccccc3)CS[C@H]12)c1csc(N)n1)C(=O)O")
1.51
>>> reportedvalue("C[C@H]1COc2c(N3CCN(C)CC3)c(F)cc3c(=O)c(C(=O)O)cn1c23.C[C@H]1COc2c(N3CCN(C)CC3)c(F)cc3c(=O)c(C(=O)O)cn1c23.O")
-1.64
>>> reportedvalue("C[C@@H](O)[C@H]1C(=O)N2C(C(=O)O)=C(S[C@@H]3CN[C@H](C(=O)Nc4cccc(C(=O)O)c4)C3)[C@H](C)[C@H]12")
0.90
>>> reportedvalue("CCn1cc(C(=O)O)c(=O)c2ccc(C)nc21")
0.30
>>> reportedvalue("C[C@@H](O)[C@H]1C(=O)N2C(C(=O)O)=C(S[C@@H]3CN[C@H](C(=O)N(C)C)C3)[C@H](C)[C@H]12")
0.48
>>> reportedvalue("C[C@@H](O)[C@H]1C(=O)N2C(C(=O)O)=C(SCCNC=N)C[C@H]12 [IMIPENEM ANHYDROUS]")
0.60

====

System: Escherichia coli
methodSummary: Antimicrobial activity against Escherichia coli T-625 harboring expressing qnrB2 and beta-lactamase KPC-2 and SHV-12 gene by Etest
Type: functional
readoutType: MIC (µg/mL)

>>> reportedvalue("C[C@@H](O)[C@H]1C(=O)N2C(C(=O)O)=C(S[C@@H]3CN[C@H](C(=O)Nc4cccc(C(=O)O)c4)C3)[C@H](C)[C@H]12")
8
>>> reportedvalue("CCn1cc(C(=O)O)c(=O)c2ccc(C)nc21 [NALIDIXIC ACID]")
4

====

System: Enterobacter cloacae
methodSummary: Antimicrobial activity against Enterobacter cloacae isolate 533 containing PFGE genetic clone A expressing qnrB2 and beta-lactamase KPC-2 and SHV-12 gene by Etest
Type: functional
hey, just use satisfied if measured MIC is less than 4 µg/mL, otherwise not satisfied

>>> discretelabel("CCN1CCN(C(=O)N[C@@H](C(=O)N[C@@H]2C(=O)N3[C@@H]2SC(C)(C)[C@@H]3C(=O)O)c2ccccc2)C(=O)C1=O")
"not satisfied"
>>> discretelabel("C[C@H]1COc2c(N3CCN(C)CC3)c(F)cc3c(=O)c(C(=O)O)cn1c23.C[C@H]1COc2c(N3CCN(C)CC3)c(F)cc3c(=O)c(C(=O)O)cn1c23.O")
"satisfied"
>>> discretelabel("CC(C)(O/N=C(\\C(=O)N[C@@H]1C(=O)N2C(C(=O)[O-])=C(C[n+]3ccccc3)CS[C@H]12)c1csc(N)n1)C(=O)O")
"not satisfied"
>>> discretelabel("C[C@@H](O)[C@H]1C(=O)N2C(C(=O)O)=C(S[C@@H]3CN[C@H](C(=O)N(C)C)C3)[C@H](C)[C@H]12")
"satisfied"
>>> discretelabel("CCn1cc(C(=O)O)c(=O)c2ccc(C)nc21")
"not satisfied"
>>> discretelabel("NCC[C@H](O)C(=O)N[C@@H]1C[C@H](N)[C@@H](O[C@H]2O[C@H](CN)[C@@H](O)[C@H](O)[C@H]2O)[C@H](O)[C@H]1O[C@H]1O[C@H](CO)[C@@H](O)[C@H](N)[C@H]1O")
"satisfied"
>>> discretelabel("C[C@@H](O)[C@H]1C(=O)N2C(C(=O)O)=C(S[C@@H]3CN[C@H](C(=O)Nc4cccc(C(=O)O)c4)C3)[C@H](C)[C@H]12")
"not satisfied"
